# Procedure Details: Ex vivo biodistribution in PC-3 tumor-bearing mice
# Assay Conditions: male, NRG, mouse, PC-3 tumor, iv, total radioactivity, Biodistribution PC3 tumor Mean, 1 h post-injection, mice bearing PC-3 tumor xenografts, n = 4
Numbered stars: 1 amine (or outer) side, 2 acyl side, 3 side chain; on linkers, the order of the positions; unused ones are H or OH. Square brackets hold non-standard residues; d marks the D form. Peptide text beside a SMILES is read from it. * marks the point of attachment. DOTA = O=C(O)CN1CCN(CC(=O)O)CCN(CC(=O)*)CCN(CC(=O)O)CC1; Leuψ(CH2N)ThzNH2 = CC(C)C[C@@H](CN1CSC[C@H]1C(N)=O)N*; X1 = O=C(CN1CCC(N[*:1])CC1)[*:2]; Tle = CC(C)(C)[C@H](N)C(=O)O
Readout: tissue uptake at 1 h
Give your result as the value with the unit written after it.

For orientation, consider the following solved cases.
Molecule: CC(C)C[C@@H](CN1CSC[C@H]1C(N)=O)NC(=O)[C@H](Cc1c[nH]cn1)NC(=O)CNC(=O)[C@@H](NC(=O)[C@H](C)NC(=O)[C@H](Cc1c[nH]c2ccccc12)NC(=O)[C@H](CCC(N)=O)NC(=O)[C@@H](Cc1ccccc1)NC(=O)CN1CCC(NC(=O)CN2CCN(CC(=O)O)CCN(CC(=O)O)CCN(CC(=O)O)CC2)CC1)C(C)(C)C [^68Ga-LW01158, metal not drawn] ({DOTA}-[X1][dF]QWA[Tle]GH-{Leuψ(CH2N)ThzNH2})
tissue uptake at 1 h: 11.2 %ID/g
//
Molecule: CC(C)C[C@H](NC(=O)[C@H](Cc1c[nH]cn1)NC(=O)CNC(=O)[C@@H](NC(=O)[C@H](C)NC(=O)[C@H](Cc1c[nH]c2ccccc12)NC(=O)[C@H](CCC(N)=O)NC(=O)[C@@H](Cc1ccc2ccccc2c1)NC(=O)CN1CCC(NC(=O)CN2CCN(CC(=O)O)CCN(CC(=O)O)CCN(CC(=O)O)CC2)CC1)C(C)C)C(=O)N1CSC[C@H]1C(N)=O [^68Ga-LW01029, metal not drawn]
tissue uptake at 1 h: 4.7 %ID/g
//
Molecule: CC(C)C[C@H](NC(=O)[C@H](Cc1c[nH]cn1)NC(=O)CNC(=O)[C@@H](NC(=O)[C@H](C)NC(=O)[C@H](Cc1c[nH]c2ccccc12)NC(=O)[C@H](CCC(N)=O)NC(=O)[C@@H](Cc1ccccc1)NC(=O)CN1CCC(NC(=O)CN2CCN(CC(=O)O)CCN(CC(=O)O)CCN(CC(=O)O)CC2)CC1)C(C)C)C(=O)N1CSC[C@H]1C(N)=O [^68Ga-LW01025, metal not drawn]
tissue uptake at 1 h: 6.2 %ID/g

# input # query: tissue uptake at 1 h of entry CC(C)C[C@@H](CN1CCC[C@H]1C(N)=O)NC(=O)[C@H](Cc1c[nH]cn1)NC(=O)CN(C)C(=O)[C@@H](NC(=O)[C@H](C)NC(=O)[C@H](Cc1c[nH]c2ccccc12)NC(=O)[C@H](CCC(N)=O)NC(=O)[C@@H](Cc1ccccc1)NC(=O)CN1CCC(NC(=O)CN2CCN(CC(=O)O)CCN(CC(=O)O)CCN(CC(=O)O)CC2)CC1)C(C)C [^68Ga-LW02045, metal not drawn]
# output 12.4 %ID/g
